# Tested on: Escherichia coli ATCC BAA-2523
# Assay type: cell-based
# condition: ATCC BAA-2523
Bridge positions count the residues as written; N and C are the ends. Square brackets hold non-standard residues; d marks the D form. Peptide text beside a SMILES is read from it. * marks the point of attachment. Heptanoyl(6-Me) = CC(C)CCCCC(=O)*; dDab = NCC[C@@H](N)C(=O)O; Octanoyl = CCCCCCCC(=O)*; Dab = NCC[C@H](N)C(=O)O; Dap = NC[C@H](N)C(=O)O
endpoint: MIC

CC(C)CCCCC(=O)N[C@@H](CCN)C(=O)N[C@H](C(=O)N[C@@H](CN)C(=O)N[C@H]1CCNC(=O)[C@H]([C@@H](C)O)NC(=O)[C@H](CCN)NC(=O)[C@H](CCN)NC(=O)[C@H](CC(C)C)NC(=O)[C@@H](Cc2ccccc2)NC(=O)[C@H](CCN)NC1=O)[C@@H](C)O [Compound 37] ({Heptanoyl(6-Me)}-[Dab]T[Dap][Dab][Dab][dF]L[Dab][Dab]T; lactam 4-C); 0.03 µg/mL

// moving on: another record for MIC
Query: What value of MIC has been reported for the following compound? CCCCCCCC(=O)N[C@@H](CCN)C(=O)N[C@H](C(=O)N[C@H](CCN)C(=O)N[C@H]1CCNC(=O)[C@H]([C@@H](C)O)NC(=O)[C@H](CCN)NC(=O)[C@H](CCN)NC(=O)[C@H]([C@@H](C)O)NC(=O)[C@@H](Cc2ccccc2)NC(=O)[C@H](CCN)NC1=O)[C@@H](C)O [Compound 13] (Octanoyl-[Dab]T[dDab][Dab][Dab][dF]T[Dab][Dab]T; lactam 4-C)
Result: ≤0.03 µg/mL

###

Entries and their MIC values follow.
# Test system: Pseudomonas aeruginosa ATCC 27853
# Assay type: cell-based
# condition: ATCC 27853
Bridge positions count the residues as written; N and C are the ends. Square brackets hold non-standard residues; d marks the D form. Peptide text beside a SMILES is read from it. * marks the point of attachment. Nonanoyl = CCCCCCCCC(=O)*; Octanoyl = CCCCCCCC(=O)*; Dab = NCC[C@H](N)C(=O)O; Dap = NC[C@H](N)C(=O)O
Could you give me the number in µg/mL? Just the number is fine.

Query: Sample CCCCCCCC(=O)N[C@@H](CCN)C(=O)N[C@H](C(=O)N[C@H](CO)C(=O)N[C@H]1CCNC(=O)[C@H]([C@@H](C)O)NC(=O)[C@H](CCN)NC(=O)[C@H](CCN)NC(=O)[C@H]([C@@H](C)O)NC(=O)[C@@H](Cc2ccccc2)NC(=O)[C@H](CN)NC1=O)[C@@H](C)O [Compound 63] (Octanoyl-[Dab]T[dS][Dab][Dap][dF]T[Dab][Dab]T; lactam 4-C) — what was its MIC?
Result: 64

Query: Which MIC is reported for this molecule? CCCCCCCCC(=O)N[C@@H](CCN)C(=O)N[C@H](C(=O)N[C@@H](CN)C(=O)N[C@H]1CCNC(=O)[C@H]([C@@H](C)O)NC(=O)[C@H](CCN)NC(=O)[C@H](CCN)NC(=O)[C@H]([C@@H](C)O)NC(=O)[C@@H](Cc2ccccc2)NC(=O)[C@H](CCN)NC1=O)[C@@H](C)O [Compound 10] (Nonanoyl-[Dab]T[Dap][Dab][Dab][dF]T[Dab][Dab]T; lactam 4-C)
Result: 0.25

###

# Tested on: Klebsiella pneumoniae KPN+19-15
# Type: cell-based
# condition: KPN+19-15
Bridge positions count the residues as written; N and C are the ends. Square brackets hold non-standard residues; d marks the D form. Peptide text beside a SMILES is read from it. * marks the point of attachment. Dab(CH2SO3H) = N[C@@H](CCNCS(=O)(=O)O)C(=O)O; Heptanoyl(6-Me) = CC(C)CCCCC(=O)*; Sulfomethyl = O=S(=O)(O)C*; dOrn = NCCC[C@@H](N)C(=O)O; Nonanoyl = CCCCCCCCC(=O)*; X1 = CC[C@H](C)CCCCC(=O)*; dDab = NCC[C@@H](N)C(=O)O; Heptanoyl = CCCCCCC(=O)*; Dab = NCC[C@H](N)C(=O)O; Dap = NC[C@H](N)C(=O)O
Measured MIC accompanies every entry in the list below.
Numeric only. Scale: µg/mL

Check out these entries, answers already filled in.
CC(C)CCCCC(=O)N[C@@H](CN)C(=O)N[C@H](C(=O)N[C@H](CO)C(=O)N[C@H]1CCNC(=O)[C@H]([C@@H](C)O)NC(=O)[C@H](CCN)NC(=O)[C@H](CCN)NC(=O)[C@H]([C@@H](C)O)NC(=O)[C@@H](Cc2ccccc2)NC(=O)[C@H](CCN)NC1=O)[C@@H](C)O [Compound 52] ({Heptanoyl(6-Me)}-[Dap]T[dS][Dab][Dab][dF]T[Dab][Dab]T; lactam 4-C); 0.5
CC(C)CCCCC(=O)N[C@@H](CCNCS(=O)(=O)O)C(=O)N[C@H](C(=O)N[C@@H](CN)C(=O)N[C@H]1CCNC(=O)[C@H]([C@@H](C)O)NC(=O)[C@H](CCN)NC(=O)[C@H](CCN)NC(=O)[C@H]([C@@H](C)O)NC(=O)[C@@H](Cc2ccccc2)NC(=O)[C@H](CCN)NC1=O)[C@@H](C)O [Compound 117] ({Heptanoyl(6-Me)}-[Dab(CH2SO3H)]T[Dap][Dab][Dab][dF]T[Dab][Dab]T; lactam 4-C); 0.125
CC(C)CCCCC(=O)N[C@@H](CCN)C(=O)N[C@H](C(=O)N[C@@H](CN)C(=O)N[C@H]1CCNC(=O)[C@H]([C@@H](C)OCS(=O)(=O)O)NC(=O)[C@H](CCN)NC(=O)[C@H](CCN)NC(=O)[C@H]([C@@H](C)O)NC(=O)[C@@H](Cc2ccccc2)NC(=O)[C@H](CCN)NC1=O)[C@@H](C)O [Compound 115] ({Heptanoyl(6-Me)}-[Dab]T[Dap][Dab][Dab][dF]T[Dab][Dab]T(Sulfomethyl); lactam 4-C); 0.125
CCCCCCC(=O)N[C@@H](CCN)C(=O)N[C@H](C(=O)N[C@H](CO)C(=O)N[C@H]1CCNC(=O)[C@H]([C@@H](C)O)NC(=O)[C@H](CCN)NC(=O)[C@H](CCN)NC(=O)[C@H]([C@@H](C)O)NC(=O)[C@@H](Cc2ccccc2)NC(=O)[C@H](CN)NC1=O)[C@@H](C)O [Compound 64] (Heptanoyl-[Dab]T[dS][Dab][Dap][dF]T[Dab][Dab]T; lactam 4-C); 0.5
CC[C@H](C)CCCCC(=O)N[C@@H](CN)C(=O)N[C@H](C(=O)N[C@H](CCN)C(=O)N[C@H]1CCNC(=O)[C@H]([C@@H](C)O)NC(=O)[C@H](CCN)NC(=O)[C@H](CCN)NC(=O)[C@H](CC(C)C)NC(=O)[C@@H](CC(C)C)NC(=O)[C@H](CCN)NC1=O)[C@@H](C)O [Compound 96] (X1-[Dap]T[dDab][Dab][Dab][dL]L[Dab][Dab]T; lactam 4-C); 0.03
CC(C)CCCCC(=O)N[C@@H](CCN)C(=O)N[C@H](C(=O)N[C@H](CO)C(=O)N[C@H]1CCNC(=O)[C@H]([C@@H](C)O)NC(=O)[C@H](CCN)NC(=O)[C@H](CCNCS(=O)(=O)O)NC(=O)[C@H]([C@@H](C)O)NC(=O)[C@@H](Cc2ccccc2)NC(=O)[C@H](CCN)NC1=O)[C@@H](C)O [Compound 110] ({Heptanoyl(6-Me)}-[Dab]T[dS][Dab][Dab][dF]T[Dab(CH2SO3H)][Dab]T; lactam 4-C); 0.125
CCCCCCC(=O)N[C@@H](CCN)C(=O)N[C@H](C(=O)N[C@H](CO)C(=O)N[C@H]1CCNC(=O)[C@H]([C@@H](C)O)NC(=O)[C@H](CN)NC(=O)[C@H](CCN)NC(=O)[C@H]([C@@H](C)O)NC(=O)[C@@H](Cc2ccccc2)NC(=O)[C@H](CCN)NC1=O)[C@@H](C)O [Compound 84] (Heptanoyl-[Dab]T[dS][Dab][Dab][dF]T[Dab][Dap]T; lactam 4-C); 0.5
CCCCCCCCC(=O)N[C@@H](CCN)C(=O)N[C@H](C(=O)N[C@H](CCCN)C(=O)N[C@H]1CCNC(=O)[C@H]([C@@H](C)O)NC(=O)[C@H](CCN)NC(=O)[C@H](CCN)NC(=O)[C@H](CC(C)C)NC(=O)[C@@H](Cc2ccccc2)NC(=O)[C@H](CCN)NC1=O)[C@@H](C)O [Compound 45] (Nonanoyl-[Dab]T[dOrn][Dab][Dab][dF]L[Dab][Dab]T; lactam 4-C); 0.125

Pending compound:
Query: What reported MIC corresponds to CC[C@H](C)CCCCC(=O)N[C@@H](CN)C(=O)N[C@H](C(=O)N[C@H](CO)C(=O)N[C@H]1CCNC(=O)[C@H]([C@@H](C)O)NC(=O)[C@H](CCN)NC(=O)[C@H](CCN)NC(=O)[C@H]([C@@H](C)O)NC(=O)[C@@H](Cc2ccccc2)NC(=O)[C@H](CCN)NC1=O)[C@@H](C)O [Compound 51] (X1-[Dap]T[dS][Dab][Dab][dF]T[Dab][Dab]T; lactam 4-C) on Klebsiella pneumoniae KPN+19-15?
Result: 0.5
